The following molecules are listed with their measured melting point values.

The following molecules have reported results that may help.
structureSmiles | endpointValue
CC(C)Nc1ncc2cc(-c3cccc(NC(=O)c4cc(F)cc(N5CCCC5)c4)c3)c(O)cc2n1 | 229 °C
CC[C@H](C)Nc1ncc2cc(-c3ccccc3Cl)c(O)cc2n1 | 173 to 175 °C
CC(C)Nc1ncc2cc(-c3cccc(C(=O)Nc4ccnc(N5CCOCC5)c4)c3)c(O)cc2n1 | 255 to 257 °C
CS(=O)(=O)N1CCC(Nc2ncc3cc(-c4ccccc4Cl)c(O)cc3n2)CC1 | 268 to 271 °C
Cc1c(F)cc(C(=O)NC2CC2)cc1-c1cc2cnc(NC(C)C)nc2cc1O | 175 to 177 °C

Looking up `CC[C@H](C)Nc1ncc2cc(-c3cccc(NC(=O)c4ccnc(N5CCOCC5)c4)c3)c(O)cc2n1` , I see its melting point listed as 183 to 184 °C

Looking up `Cc1cc(F)ccc1-c1cc(C(=O)Nc2cccc(-c3cc4cnc(NC(C)C)nc4cc3O)c2)ccn1` , I see its melting point listed as 224 to 226 °C

---

- testedSystem: Activated human p38α (Homo sapiens, UniProt Q16539)
- Construct: purchased Upstate Biotechnology Inc. 14-251
- Sequence (Q16539 whole entry): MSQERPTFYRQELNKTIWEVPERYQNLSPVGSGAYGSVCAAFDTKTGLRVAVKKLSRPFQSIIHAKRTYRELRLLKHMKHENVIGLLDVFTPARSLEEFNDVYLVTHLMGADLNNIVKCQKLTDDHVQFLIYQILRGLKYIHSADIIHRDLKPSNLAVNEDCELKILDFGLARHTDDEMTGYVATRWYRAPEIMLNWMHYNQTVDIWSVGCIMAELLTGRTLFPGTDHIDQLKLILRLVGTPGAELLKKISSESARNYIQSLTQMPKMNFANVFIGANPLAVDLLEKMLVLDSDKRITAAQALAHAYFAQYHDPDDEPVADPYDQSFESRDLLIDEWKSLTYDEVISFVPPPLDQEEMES
- experimentalProtocol: p38MAP kinase inhibition test
- Assay type: biochemical
- details: at a concentration of 1 μmol/L; substrate myelin basic protein, ATP 20 μmol/L, [γ-32P]ATP; read-out: enzyme inhibitory activity
- Method: p38MAP Kinase Inhibition Test Activated human p38α was purchased from Upstate Biotechnology Inc. (Catalog No. 14-251). P38MAP kinase inhibitory activity was measured by the procedure described below with reference to the method by Whitmarsh A. J. and Davis R. J. [Methods in Enzymology (Method. Enzymol.), vol. 332, p. 319-336 (2001)]. As the substrate to be phosphorylated, a myelin basic protein (Catalog No. 133-13493, Wako Pure Chemical Industries, Ltd.) (20 μg/assay) was used. […]
The following molecules are listed with their measured inhibition at 1 µM values.

structureSmiles | inhibition at 1 µM
COc1cc2nc(NC(C)C)ncc2cc1-c1ccccc1C(F)(F)F | ≥ 50%
CNc1ncc2cc(-c3cc(NC(=O)c4ccc[nH]4)ccc3C)c(OC)cc2n1 | ≥ 50%
Cc1ccccc1-c1cc2cnc(Nc3c(Cl)cccc3Cl)nc2cc1O | ≥ 50%
COc1cc2nc(NC(C)C)ncc2cc1-c1cccc(O)c1 | ≥ 50%
CC(C)Nc1ncc2cc(-c3cc(NC(=O)c4ccnc(N5CCOCC5)c4)ccc3O)ccc2n1 | ≥ 50%

Looking up `CC(C)Nc1ncc2cc(-c3cccc(NC(=O)c4cc(F)cc(N5CCCC5)c4)c3)c(O)cc2n1` , I see its inhibition at 1 µM listed as ≥ 50%

Looking up `COc1cc2nc(NC(C)C)ncc2cc1-c1ccccc1CO` , I see its inhibition at 1 µM listed as ≥ 50%

Looking up `CC(C)Nc1ncc2cc(-c3cccc(NC(=O)c4cccc(N(C)C)c4)c3)c(O)cc2n1` , I see its inhibition at 1 µM listed as ≥ 50%

Looking up `CC(C)Nc1ncc2cc(-c3ccccc3Cl)c(OCCO)cc2n1` , I see its inhibition at 1 µM listed as ≥ 50%

---

The following molecules are listed with their measured melting point values.

molecule | melting point
CCC(CC)Nc1ncc2cc(-c3cccc(NC(=O)c4ccnc(N5CCOCC5)c4)c3)c(O)cc2n1 [Compound 368] | 154 to 155 °C
Cc1ccccc1-c1cc2cnc(NC3CCCCC3)nc2cc1O [Compound 171] | 158 °C
CC[C@H](C)Nc1ncc2cc(-c3cccc(NC(=O)c4ccnc(N5CCCC5)c4)c3)c(O)cc2n1 [Compound 384] | 165 to 168 °C

Please examine the following record next.
Looking up CC(C)Nc1ncc2cc(-c3cccc(NC(=O)c4cc(F)cc(N5CCCCC5)c4)c3)c(O)cc2n1 [Compound 370] , I see its melting point listed as 215 to 217 °C
